Conditions: 308.15 K; 101 kPa
± gives the uncertainty stated by the source.
Recorded viscosity for the following molecules
endpointName: viscosity

INSERT INTO assay_data (cpdsmiles, endpointname, reportedvalue) VALUES
  ('ClCCCCCl', 'viscosity', '1.128 ± 0.011 mPa·s'),
  ('CC12CCC(CC1)C(C)(C)O2', 'viscosity', '1.856 ± 0.056 mPa·s'),
  ('CCCCN(CCO)CCO', 'viscosity', '31.59 ± 0.49 mPa·s'),
  ('Cc1ccccc1Cl', 'viscosity', '0.808 ± 0.022 mPa·s');

---

Recorded log10 viscosity for the following molecules
Details: 298.15 K; 101 kPa
endpointName: log10 viscosity (log10 of the value in mPa·s)

INSERT INTO assay_data (cpdsmiles, reportedvalue) VALUES
  ('Nc1cccc(Cl)c1', 0.54),
  ('ClCCCCCl', 0.12),
  ('CC(=O)C=C(C)C', -0.06),
  ('CCCC[n+]1ccc(C)cc1.F[B-](F)(F)F', 2.29),
  ('CC12CCC(CC1)C(C)(C)O2', 0.41),
  ('C1C[C@@H]2[C@H]3CC[C@H](C3)[C@@H]2C1', 0.44);
